tested on: MtIOMT2; test: OMT assays with purified recombinant MtIOMT2 (relative activity; HPLC/MS of products); assay type: biochemical, Medicago truncatula; conditions: 50 μM S-adenosyl methionine, 100 μM acceptor substrate; most converted substrate (daidzein) = 100%
Test Readout: Relative activity, MtIOMT2

Molecule: O=c1oc2cc(O)ccc2c2oc3cc(O)ccc3c12
Relative activity, MtIOMT2: ≦1%

Molecule: O=C1C[C@@H](c2ccc(O)cc2)Oc2cc(O)cc(O)c21
Relative activity, MtIOMT2: ≦1%

Molecule: COc1cc2c(=O)c(-c3ccc(O)cc3)coc2cc1O
Relative activity, MtIOMT2: 38.9%

Molecule: COc1ccc(C2COc3cc(O)ccc3C2)c(O)c1 (centres unmarked)
Relative activity, MtIOMT2: ≦1%

Kindly review the next molecule as well.
Given the entry O=c1cc(-c2ccc(O)cc2)oc2cc(O)ccc12 [7,4′-dihydroxyflavone] , report its measured Relative activity, MtIOMT2. ≦1%
